target: GLP-1R (Homo sapiens); test: GLP-1R agonist cAMP stimulation assay (HTRF cAMP); settings: HEK293 cell line expressing GLP-1 target; HTRF cAMP agonist mode, 30 min at RT
Sequence (P43220 24-463): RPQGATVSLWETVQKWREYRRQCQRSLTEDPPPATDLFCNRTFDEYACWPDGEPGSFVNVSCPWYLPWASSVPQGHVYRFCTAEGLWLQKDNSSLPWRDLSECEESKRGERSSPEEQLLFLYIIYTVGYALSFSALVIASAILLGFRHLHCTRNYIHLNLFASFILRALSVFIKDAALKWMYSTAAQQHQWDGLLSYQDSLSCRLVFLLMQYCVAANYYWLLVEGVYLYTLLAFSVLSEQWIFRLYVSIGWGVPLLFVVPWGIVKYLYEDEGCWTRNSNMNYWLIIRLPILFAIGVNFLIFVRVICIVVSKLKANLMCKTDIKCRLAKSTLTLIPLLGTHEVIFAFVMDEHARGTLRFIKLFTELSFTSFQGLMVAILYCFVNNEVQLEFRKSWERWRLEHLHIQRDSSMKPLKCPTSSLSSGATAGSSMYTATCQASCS
Here, each record is paired with measured EC50 data.

These solved cases illustrate the format of a correct answer.
CCc1cc(NC(=O)c2ccc3c(c2)nc(CN2CCC(c4cccc(OCc5ccc(Cl)cc5F)n4)CC2)n3C[C@@H]2CCO2)cc2c(C)n[nH]c12 : 10.2 nM
Cc1n[nH]c2c(C)cc(C(=O)Nc3ccc4nc(CN5CC=C(c6cccc(OCc7ccc(C#N)cc7F)n6)CC5)n(CC5CCO5)c4c3)cc12 (stereo not drawn) : 0.75 nM
N#Cc1ccc(COc2cccc(C3CCN(Cc4nc5cc(C(=O)NCC(=O)N6C[C@@H](O)C[C@H]6C(=O)O)ccc5n4C[C@@H]4CCO4)CC3)n2)c(F)c1 : 0.97 nM
COc1n[nH]c2ccc(C(=O)Nc3ccc4c(c3)nc(CN3CC=C(c5cccc(OCc6ccc(Cl)cc6F)n5)CC3)n4C[C@@H]3CCO3)cc12 : 1.99 nM
O=C(Nc1ccc2c(c1)nc(CN1CC=C(c3cccc(OCc4ccc(Cl)cc4F)n3)CC1)n2C[C@@H]1CCO1)c1ccc2[nH]nc(C3CC3)c2c1 : 0.82 nM
O=C(Nc1ccc2[nH]nc(F)c2c1)c1ccc2c(c1)nc(CN1CC=C(c3cccc(OCc4ccc(Cl)cc4F)n3)CC1)n2C[C@@H]1CCO1 : 15.2 nM
Cc1n[nH]c2c(C)cc(C(=O)Nc3ccc4c(c3)nc(C3CC35CCN(c3cccc(OCc6ccc(Cl)cc6F)n3)CC5)n4CC3CCO3)cc12 (stereo not drawn) : 0.51 nM
Cc1n[nH]c2c(C(F)(F)F)cc(NC(=O)c3ccc4c(c3)nc(CN3CC=C(c5cccc6c5O[C@](C)(c5ccc(Cl)cc5F)O6)CC3)n4CC3CCO3)cc12 (stereo partly drawn) : 2.81 nM
Cc1n[nH]c2c(F)cc(C(=O)Nc3ccc4c(c3)nc(Cc3cc(F)c(-c5cccc(OCc6ccc(Cl)cc6F)n5)cc3F)n4C3COC[C@H]3O)cc12 (stereo partly drawn) : 0.65 nM
Cc1cc(NC(=O)c2ccc3c(c2)nc(CN2CC=C(c4cccc(OCc5cc(F)c(C#N)s5)n4)CC2)n3C[C@@H]2CCO2)cc2c(C(F)(F)F)n[nH]c12 : 1.32 nM

Inquiry: What value of measured EC50 is listed for O=C(Nc1nc2[nH]cnc2s1)c1ccc2c(c1)nc(CN1CC=C(c3cccc(OCc4ccc(Cl)cc4F)n3)CC1)n2C[C@@H]1CCO1 ?
Reply text: 23.2 nM

Inquiry: EC50 for N#Cc1ccc(COc2cccc(C3=CCN(Cc4nc5cc(NC(=O)c6ccc7c(c6)C6(CC6)C(=O)N7)ccc5n4C[C@@H]4CCO4)CC3)n2)c(F)c1 ?
Reply text: 0.09 nM

----------
// pEC50 lookup, one value per entry
target: GLP-1R (Homo sapiens); test: GLP-1R agonist cAMP stimulation assay (HTRF cAMP); settings: HEK293 cell line expressing GLP-1 target; HTRF cAMP agonist mode, 30 min at RT
Just the number, please; pEC50 means minus log10 of the concentration in mol/L.

// worked examples, pEC50 included
Cc1n[nH]c2c(Cl)cc(NC(=O)c3ccc4c(c3)nc(CN3CCC(c5cccc6c5OC(C)(c5ccc(Cl)cc5F)O6)CC3)n4CC3CCO3)cc12 (stereo not drawn) [Compound 338] : 8.88
Cn1c(=O)[nH]c2ccc(NC(=O)c3ccc4c(c3)nc(CN3CC=C(c5cccc(OCc6ccc(Cl)cc6F)n5)CC3)n4C[C@@H]3CCO3)cc21 [Compound 146] : 7.62
Cc1n[nH]c2c(F)cc(C(=O)Nc3ccc4c(c3)nc(Cc3c(F)cc(-c5cccc6c5O[C@@](C)(c5ccc(Cl)cn5)O6)cc3F)n4CC3CCO3)cc12 (stereo partly drawn) [Compound 386] : 9.82
Cc1cc(NC(=O)c2ccc3c(c2)nc(CN2CCC(c4cccc5c4OC(C)(c4ccc(Cl)cc4F)O5)CC2)n3CC2CCO2)cc2c(C(F)(F)F)n[nH]c12 (stereo not drawn) [Compound 332] : 8.80
O=C(Nc1cc(F)c2c(c1)C1(CC1)C(=O)N2)c1ccc2c(c1)nc(CN1CCC(c3cccc(OCc4ccc(Cl)cc4F)n3)CC1)n2C[C@@H]1CCO1 [Compound 104] : 8.98

Then there is this compound:
Inquiry: # query: pEC50 of entry Cc1cc(C(=O)Nc2ccc3c(c2)nc(Cc2c(F)cc(-c4cccc5c4OC(C)(c4ccc(Cl)cc4F)O5)cc2F)n3C[C@@H]2CCO2)cc2[nH]c(=O)[nH]c12 (stereo partly drawn) [Compound 321]
Reply text: 9.03
